# System: CCRIS mutagenicity, Ames/micronucleus/aberration tests
# method-notes: CCRIS mutagenicity studies
# particulars: Test System: E.COLI; Strain/Indicator: WP2UVRA; Metabolic Activation: RAT LIVER S-9, PHENOBARBITAL AND BETA-NAPHTHOFLAVONE; Method: PREINCUBATION
Activity calls are given as the source filed them. The rule behind the calls is not given here.
Labels: active, inactive

# compound, assigned-class
records = [
    ("O=C1OC(=O)c2ccccc21", "inactive"),
    ("Cc1ccc(N)cc1C", "inactive"),
    ("O", "inactive"),
    ("[Cl][V]([Cl])[Cl]", "inactive"),
    ("O=C(O)CBr", "inactive"),
    ("Cc1ccc(S(=O)(=O)NN)cc1", "active"),
    ("Nc1cc(Cl)ccc1[N+](=O)[O-]", "inactive"),
    ("Cc1cnc[nH]1", "inactive"),
    ("O=c1n(CC2CO2)c(=O)n(CC2CO2)c(=O)n1CC1CO1 (stereo not given)", "inactive"),
    ("O=[N+]([O-])c1ccc(Cl)cc1Cl", "inactive"),
]

----------
# Test system: CCRIS mutagenicity, Ames/micronucleus/aberration tests
# method-notes: CCRIS mutagenicity studies
# particulars: Test System: AMES SALMONELLA TYPHIMURIUM; Strain/Indicator: TA100; Metabolic Activation: RAT, LIVER, S-9, AROCLOR 1254; Method: STANDARD PLATE
Active and inactive are the calls of the source. How the calls were made is not given here.
Outcome codes: TRUE for active, FALSE for inactive

# smiles-string, assay-system, assigned-class
rows = [
    ("CN(N=O)C(=O)N[C@@H](C=O)[C@@H](O)[C@H](O)[C@H](O)CO", "CCRIS mutagenicity, Ames/micronucleus/aberration tests", "FALSE"),
    ("FC(F)(F)c1ccc(Cl)cc1", "CCRIS mutagenicity, Ames/micronucleus/aberration tests", "FALSE"),
    ("c1cc2ccc3ccc4ccc5cccc6c(c1)c2c3c4c56", "CCRIS mutagenicity, Ames/micronucleus/aberration tests", "TRUE"),
    ("CCOP(=O)(OCC)O/C(=C/Br)c1ccc(Cl)cc1Cl", "CCRIS mutagenicity, Ames/micronucleus/aberration tests", "FALSE"),
    ("CN1C(=O)CN=C(c2ccccc2F)c2cc([N+](=O)[O-])ccc21", "CCRIS mutagenicity, Ames/micronucleus/aberration tests", "TRUE"),
    ("Cc1c(C)c(N)c(C)c(C)c1N", "CCRIS mutagenicity, Ames/micronucleus/aberration tests", "FALSE"),
    ("O=C1C=CC(=O)N1", "CCRIS mutagenicity, Ames/micronucleus/aberration tests", "TRUE"),
    ("O=[N+]([O-])O[C@@H]1CO[C@H]2[C@@H]1OC[C@@H]2O", "CCRIS mutagenicity, Ames/micronucleus/aberration tests", "FALSE"),
    ("CC(C)Nc1nc(Cl)nc(NC(C)C)n1", "CCRIS mutagenicity, Ames/micronucleus/aberration tests", "FALSE"),
    ("C/C=C/c1ccc(O)c(OC)c1", "CCRIS mutagenicity, Ames/micronucleus/aberration tests", "FALSE"),
    ("CC(=O)N(O)c1ccc(C)cc1", "CCRIS mutagenicity, Ames/micronucleus/aberration tests", "FALSE"),
    ("Nc1ccc(/C=C/c2ccc(N)cc2)cc1", "CCRIS mutagenicity, Ames/micronucleus/aberration tests", "FALSE"),
    ("CC(C)CCC[C@@H](C)[C@H]1CC[C@H]2[C@@H]3C[C@@H](O)[C@@]4(O)C[C@@H](O)CC[C@]4(C)[C@H]3CC[C@]12C", "CCRIS mutagenicity, Ames/micronucleus/aberration tests", "FALSE"),
    ("O=C1Nc2ccc([N+](=O)[O-])cc2C1=O", "CCRIS mutagenicity, Ames/micronucleus/aberration tests", "TRUE"),
    ("COc1ccc(-c2coc3cc(O)cc(O)c3c2=O)cc1", "CCRIS mutagenicity, Ames/micronucleus/aberration tests", "FALSE"),
    ("c1ccc2c(c1)-c1cccc3cc4ccccc4c-2c13", "CCRIS mutagenicity, Ames/micronucleus/aberration tests", "TRUE"),
    ("CSc1ccc(Cl)cc1", "CCRIS mutagenicity, Ames/micronucleus/aberration tests", "FALSE"),
    ("O[C@H]1C=Cc2c(ccc3cc4c(cc23)[C@H](O)[C@@H](O)c2ccccc2-4)[C@@H]1O", "CCRIS mutagenicity, Ames/micronucleus/aberration tests", "FALSE"),
    ("C[C@@H]1O[C@@H](O[C@H]2[C@H](O[C@H]3[C@H](O[C@H]4CC[C@@]5(C)[C@@H](CC[C@]6(C)[C@@H]5CC=C5[C@@H]7CC(C)(C)C[C@@H](O)[C@]7(C)CC[C@]56C)[C@@]4(C)CO)O[C@H](C(=O)O)[C@@H](O)[C@@H]3O)O[C@H](CO)[C@H](O)[C@@H]2O)[C@H](O)[C@H](O)[C@H]1O", "CCRIS mutagenicity, Ames/micronucleus/aberration tests", "FALSE"),
    ("NC(=O)c1cccc2cccnc12", "CCRIS mutagenicity, Ames/micronucleus/aberration tests", "TRUE"),
    ("ClC(Cl)=C(Cl)c1c(Cl)c(Cl)c(Cl)c(Cl)c1Cl", "CCRIS mutagenicity, Ames/micronucleus/aberration tests", "FALSE"),
    ("C=CC(=O)OCC(CC)(COC(=O)C=C)COC(=O)C=C", "CCRIS mutagenicity, Ames/micronucleus/aberration tests", "FALSE"),
    ("O=CN(O)c1ccc(Br)cc1", "CCRIS mutagenicity, Ames/micronucleus/aberration tests", "TRUE"),
]
